TARGET: T1, Human ROR1-ECD-his (human, UniProt Q01973 30-406)
T1 construct: extracellular domain; bought, Acrobiosystems RO1-H522y; also called hROR1-ECD-his; hROR1 ECD-his
T1 sequence (Q01973 30-406): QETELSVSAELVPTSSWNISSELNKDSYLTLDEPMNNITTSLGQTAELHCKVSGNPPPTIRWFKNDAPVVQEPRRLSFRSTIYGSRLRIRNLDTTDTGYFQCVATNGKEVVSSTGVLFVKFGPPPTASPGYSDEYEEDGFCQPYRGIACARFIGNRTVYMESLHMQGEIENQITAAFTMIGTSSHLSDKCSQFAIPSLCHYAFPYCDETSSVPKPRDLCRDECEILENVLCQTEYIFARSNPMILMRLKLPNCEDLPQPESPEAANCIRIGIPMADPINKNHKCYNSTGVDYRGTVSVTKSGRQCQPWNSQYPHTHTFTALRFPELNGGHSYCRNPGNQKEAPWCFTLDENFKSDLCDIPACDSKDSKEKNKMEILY
ASSAY_INFO: ELISA, plate coated with hROR1 ECD-his

{"BINDER": "PR001368 (antibody, V domains shown, fully human IgG1, kappa) VH: QVQLVESGGGVVQPGRSLRLSCAASGFTFSTYGMHWVRQAPGKGLEWVAVIWYDGSDTDYADSVKGRFTISRDTSKNTLYLQMNSLRAEDTAVYYCAREQARSFDLWGRGTLVTVSS VL: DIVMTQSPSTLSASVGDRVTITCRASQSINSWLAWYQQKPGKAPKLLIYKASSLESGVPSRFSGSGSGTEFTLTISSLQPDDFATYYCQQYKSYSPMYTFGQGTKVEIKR", "ELISA signal (called MFI)": 2.51}
{"BINDER": "PR001366 (antibody, V domains shown, fully human IgG1, kappa) VH: QVQLVESGGGVVQPGRSLRLSCTASGFTFSSYGMHWVRQAPGKGLEWVAVKWYDGISQNFADSVKGRFTISRDNSKNTLYLQMNSLRAEDTAVYYCARDLARSFDIWGRGTLVTVSS VL: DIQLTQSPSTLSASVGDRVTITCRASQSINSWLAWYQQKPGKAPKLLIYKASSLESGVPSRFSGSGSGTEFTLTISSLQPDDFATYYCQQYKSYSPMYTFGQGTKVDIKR", "ELISA signal (called MFI)": 2.24}
{"BINDER": "PR001359 (antibody, human IgG1, kappa, V domains shown, fully human IgG1, kappa) VH: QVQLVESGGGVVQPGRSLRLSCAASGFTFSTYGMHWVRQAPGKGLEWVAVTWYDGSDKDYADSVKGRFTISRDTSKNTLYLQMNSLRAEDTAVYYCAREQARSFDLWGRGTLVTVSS VL: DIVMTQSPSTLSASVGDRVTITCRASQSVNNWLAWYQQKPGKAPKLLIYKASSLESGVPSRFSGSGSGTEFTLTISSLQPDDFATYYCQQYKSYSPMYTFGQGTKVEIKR", "ELISA signal (called MFI)": 2.39}
{"BINDER": "PR001418 (antibody, human IgG1, kappa, V domains shown, fully human IgG1, kappa) VH: QVQLVESGGGVVQPGRSLRLSCAASGFTFSSYGMHWVRQAPGKGLEWVAVIWYDGSDKDYADSVKGRFTISRDTSKNTLYLQMNSLRAEDTAVYYCAREQARSFDLWGRGTLVTVSS VL: DIVMTQSPSTLSASVGDRVTITCRASQTINNWLAWYQQKPGKAPKLLIYKASSLESGVPSRFSGSGSGTEFTLTISSLQPDDFATYYCQQYNSYSPMYTFGQGTKLEIKR", "ELISA signal (called MFI)": 2.42}
{"BINDER": "PR001355 (antibody, human IgG1, kappa, V domains shown, fully human IgG1, kappa) VH: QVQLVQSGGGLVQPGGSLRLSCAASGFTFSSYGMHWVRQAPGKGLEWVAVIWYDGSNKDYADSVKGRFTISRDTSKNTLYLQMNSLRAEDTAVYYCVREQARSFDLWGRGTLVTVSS VL: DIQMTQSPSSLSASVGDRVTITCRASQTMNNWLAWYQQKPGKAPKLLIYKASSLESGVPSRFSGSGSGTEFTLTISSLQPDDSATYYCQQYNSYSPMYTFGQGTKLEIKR", "ELISA signal (called MFI)": 2.54}
